Assay target: KRasG12C (Homo sapiens, UniProt P01116, G12C)
Construct: biotin (biotinylated); made in house
Sequence (P01116 1-188 isoform P01116-2 G12C): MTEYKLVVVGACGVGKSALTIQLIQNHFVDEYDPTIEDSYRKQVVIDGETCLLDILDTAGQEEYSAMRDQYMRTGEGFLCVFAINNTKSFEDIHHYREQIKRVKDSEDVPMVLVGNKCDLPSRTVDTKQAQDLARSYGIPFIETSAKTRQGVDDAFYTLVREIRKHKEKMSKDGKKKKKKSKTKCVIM
Test name: KRasG12C functional assay (HTRF/FRET nucleotide exchange and Raf RBD binding)
Format: biochemical
Particulars: GDP loaded biotinylated KRasG12C, samples incubated for 4 hrs, FRET readout; single experiment or average of two or more; read-out: KRasG12C functional assay IC50
pIC50: −log10 of the molar value.

Compound	pIC50
C=CC(=O)N1CCN2Cc3c(c(Cl)c(-c4c(O)cccc4F)n4cnnc34)OC[C@H]2C1 (single isomer, unassigned) [Example 70]	4.72
C=CC(=O)N1CCN2Cc3cc(OCCOC)c(-c4c(O)cccc4Cl)c(Cl)c3OC[C@H]2C1 (single isomer, unassigned)	7.37
[2H]C([2H])([2H])Oc1nc2c(c(Cl)c1-c1c(O)cccc1Cl)OC[C@H]1CN(C(=O)C=C)CCN1C2 (single isomer, unassigned)	7.36
C=CC(=O)N1CCN2Cc3c(c(Cl)c(-c4c(O)cccc4F)n(C)c3=O)OC[C@H]2C1 (single isomer, unassigned) [Example 66]	4.68
C=CC(=O)N1CCN2Cc3cc(F)c(-c4c(O)ccc(F)c4F)c(Cl)c3OC[C@H]2C1 (single isomer, unassigned) [Example 38]	4.40
C=CC(=O)N1CCN2Cc3c(OC)cc(-c4c(O)cccc4F)c(Cl)c3OC[C@H]2C1	6.80
C=CC(=O)N1CCN2Cc3c(O)c(Cl)c(-c4c(O)cccc4F)c(Cl)c3OC[C@H]2C1 (single isomer, unassigned) [Example 13]	7.18
C=CC(=O)N1CCN2Cc3cc(F)c(-c4c(C)ccc5cc[nH]c(=O)c45)c(Cl)c3OC[C@H]2C1 (single isomer, unassigned) [Example 28]	4.77
C=CC(=O)N1CCN2Cc3cc(F)c(-c4c(O)cccc4CC)c(F)c3OC[C@H]2C1 (single isomer, unassigned) [Example 50]	4.00
C=CC(=O)N1CCN2Cc3cc(OCCN4CCCCC4)c(-c4c(O)cccc4Cl)c(F)c3OC[C@H]2C1 (single isomer, unassigned)	7.19
C=CC(=O)N1CCN2C(=O)c3ccc(-c4c(C)ccc5[nH]ncc45)c(Cl)c3NC[C@H]2C1 (single isomer, unassigned) [Example 32]	4.19
C=CC(=O)N1CCN2Cc3cc(F)c(-c4c(O)cccc4Br)c(F)c3OC[C@H]2C1 (single isomer, unassigned) [Example 59]	7.49
C=CC(=O)N1CCN2C(=O)c3cc(F)c(-c4c(O)cccc4F)c(Cl)c3OC[C@H]2C1 (single isomer, unassigned) [Example 11]	7.17
C#Cc1cc2c(c(C)c1-c1c(O)cccc1Cl)OC[C@H]1CN(C(=O)C=C)CCN1C2 (single isomer, unassigned)	7.27
C=CC(=O)N1CCN2Cc3c(C#N)cc(-c4c(O)cccc4F)c(Cl)c3OC[C@H]2C1	6.37
C=CC(=O)N1CCN2Cc3cc(F)c(-c4c(C)ccc5[nH]cnc45)c(Cl)c3OC[C@H]2C1 (single isomer, unassigned) [Example 19]	6.84
C=CC(=O)N1CCN2Cc3cc(F)c(-c4c(O)cccc4C(F)(F)F)c(F)c3OC[C@H]2C1 (single isomer, unassigned) [Example 48]	4.37
C=CC(=O)N1CCN2Cc3cc(F)c(-c4c(O)cccc4C(F)F)c(F)c3OC[C@H]2C1 (single isomer, unassigned) [Example 53]	6.18
C=CC(=O)N1CCN2C(=O)c3ccc(-c4c(C)ccc5[nH]ncc45)c(Cl)c3N(C)C[C@H]2C1 (single isomer, unassigned) [Example 37]	6.56
C#Cc1c2c(cc(F)c1-c1c(C)cccc1O)CN1CCN(C(=O)C=C)C[C@@H]1CO2 (single isomer, unassigned) [Example 64]	4.43
C=CC(=O)N1CCN2Cc3c(C#CC)nc(-c4c(O)cccc4Cl)c(Cl)c3OC[C@H]2C1 (single isomer, unassigned)	7.52
C=CC(=O)N1CCN2Cc3cc(C#CC)c(-c4c(O)cccc4Cl)c(Cl)c3OC[C@H]2C1 (single isomer, unassigned)	7.85
C=CC(=O)N1CCN2C(=O)c3ccc(-c4c(C)ccc5[nH]ncc45)c(Cl)c3NC[C@H]2C1 (single isomer, unassigned) [Example 33]	6.00
C=CC(=O)N1CCN2Cc3cc(Cl)c(-c4c(O)cccc4F)c(Cl)c3OC[C@H]2C1 (single isomer, unassigned) [Example 26]	6.00
C=CC(=O)N1CCN2Cc3c(c(Cl)c(-c4c(O)cccc4F)[nH]c3=O)OC[C@H]2C1	6.21

Origin of the recorded values: patent US12410187B2
